# experimentalTarget: human glucocorticoid receptor-α [GRX] isoform (Homo sapiens, UniProt P04150)
# Construct: host or cells: insect SF21 cells (baculovirus)
# Sequence (P04150 1-777): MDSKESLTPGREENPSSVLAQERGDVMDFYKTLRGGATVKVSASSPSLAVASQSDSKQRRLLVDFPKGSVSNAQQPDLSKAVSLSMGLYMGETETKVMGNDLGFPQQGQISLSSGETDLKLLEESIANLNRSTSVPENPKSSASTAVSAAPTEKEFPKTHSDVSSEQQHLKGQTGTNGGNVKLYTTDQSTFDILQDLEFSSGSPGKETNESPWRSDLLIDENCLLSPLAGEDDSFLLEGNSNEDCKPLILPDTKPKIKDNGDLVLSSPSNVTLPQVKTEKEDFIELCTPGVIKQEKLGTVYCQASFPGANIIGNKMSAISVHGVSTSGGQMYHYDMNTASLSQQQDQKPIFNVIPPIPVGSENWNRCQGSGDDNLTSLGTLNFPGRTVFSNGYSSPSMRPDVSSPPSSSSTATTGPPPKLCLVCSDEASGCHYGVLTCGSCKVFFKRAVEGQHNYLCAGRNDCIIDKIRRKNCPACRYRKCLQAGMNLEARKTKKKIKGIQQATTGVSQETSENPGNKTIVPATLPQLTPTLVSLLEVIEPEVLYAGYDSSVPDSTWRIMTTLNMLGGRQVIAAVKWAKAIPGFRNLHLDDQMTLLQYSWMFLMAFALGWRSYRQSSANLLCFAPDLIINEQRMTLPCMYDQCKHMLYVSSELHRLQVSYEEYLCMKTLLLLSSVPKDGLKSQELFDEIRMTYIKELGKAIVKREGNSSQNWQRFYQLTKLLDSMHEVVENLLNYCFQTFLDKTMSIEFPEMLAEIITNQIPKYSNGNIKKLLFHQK
# measurementProtocol: Radioligand binding with human glucocorticoid receptor cytosol ([3H]-dexamethasone competition)
# conditionSummary: GRX cytosol expressed in insect SF21 cells, [3H]-Dex ~0.9 nM, 4° C. overnight; Ki by Cheng-Prusoff, KL ~[…]; read-out: Ki (nM) GR
metricName: Ki (nM)

compound: C=CCC1Oc2ccc(Cl)c(C=C)c2-c2ccc3c(c21)C(C)=CC(C)(C)N3 (stereo not drawn) [Example 228]
unit: nM
Ki: 5.4

compound: CCOC(=O)c1cccc(C2Oc3cccc(OC)c3-c3ccc4c(c32)C(C)=CC(C)(C)N4)c1 (stereo not drawn) [Example 107]
unit: nM
Ki: 215

I: COc1cccc2c1-c1ccc3c(c1C(/C=C\c1ccccc1)O2)C(C)=CC(C)(C)N3 (stereo not drawn) [Example 323]
II: C=CC1(C2Oc3cccc(OC)c3-c3ccc4c(c32)C(C)=CC(C)(C)N4)CCCCC1 (stereo not drawn) [Example 139]
Query: Consider entries I and II . Which has the numerically lower Ki? Indicate your choice by writing its label.
Response: II
(II: 235 nM, I: 428 nM)

* * *

# experimentalTarget: human progesterone receptor-A [PRA] isoform (Homo sapiens, UniProt P06401)
# Construct: host or cells: insect SF21 cells (baculovirus)
# Sequence (P06401 165-933): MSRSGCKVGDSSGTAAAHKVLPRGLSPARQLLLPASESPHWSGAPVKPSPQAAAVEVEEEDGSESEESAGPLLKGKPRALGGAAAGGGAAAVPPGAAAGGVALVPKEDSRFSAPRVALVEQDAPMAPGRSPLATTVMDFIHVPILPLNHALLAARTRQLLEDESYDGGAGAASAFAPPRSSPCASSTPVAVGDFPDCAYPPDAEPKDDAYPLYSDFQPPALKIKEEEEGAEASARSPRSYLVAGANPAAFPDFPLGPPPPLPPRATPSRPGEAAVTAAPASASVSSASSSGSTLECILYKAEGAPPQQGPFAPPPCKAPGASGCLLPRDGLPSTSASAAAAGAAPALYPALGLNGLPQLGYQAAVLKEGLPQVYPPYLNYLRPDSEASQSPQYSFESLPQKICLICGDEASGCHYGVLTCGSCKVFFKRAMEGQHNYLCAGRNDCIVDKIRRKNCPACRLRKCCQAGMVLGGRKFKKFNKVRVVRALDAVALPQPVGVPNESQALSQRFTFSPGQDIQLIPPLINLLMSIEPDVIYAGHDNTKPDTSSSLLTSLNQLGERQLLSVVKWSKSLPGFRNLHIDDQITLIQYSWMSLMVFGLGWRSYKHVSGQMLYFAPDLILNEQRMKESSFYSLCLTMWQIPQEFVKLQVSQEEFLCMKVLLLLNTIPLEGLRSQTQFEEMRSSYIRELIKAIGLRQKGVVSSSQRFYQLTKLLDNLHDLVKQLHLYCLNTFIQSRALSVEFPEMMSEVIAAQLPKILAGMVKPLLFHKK
# measurementProtocol: Radioligand binding with human progesterone receptor cytosol ([3H]-progesterone competition)
# conditionSummary: PRA cytosol expressed in insect SF21 cells, [3H]Prog ~0.8 nM, 4° C. overnight; Ki by Cheng-Prusoff, KL ~4.5 nM; read-out: Ki (nM) PR
metricName: Ki (nM)

compound: C=CCC1Oc2ccc(Cl)c(C=C)c2-c2ccc3c(c21)C(C)=CC(C)(C)N3 (stereo not drawn) [Example 228]
Ki, nM: 29.5

A: COc1cccc2c1-c1ccc3c(c1C(c1cccc(Br)c1)O2)C(C)=CC(C)(C)N3 (stereo not drawn) [Example 52]
B: C=CCC1Oc2cc(F)cc(OC)c2-c2ccc3c(c21)C(C)=CC(C)(C)N3 (stereo not drawn) [Example 233]
C: C=Cc1cccc2c1-c1ccc3c(c1C(c1ccccc1)O2)C(C)=CC(C)(C)N3 (stereo not drawn) [Example 333]
Query: Number of compounds to sort: 3. Sort criterion: Ki, ascending. Provide your answer as the labels ordered per the instruction.
Response: B, A, C

P: COc1c(O)ccc2c1-c1ccc3c(c1C(c1ccsc1)O2)C(C)=CC(C)(C)N3 (stereo not drawn) [Example 444]
Q: COc1cccc2c1-c1ccc3c(c1C(=Cc1ccc(Cl)cc1)O2)C(C)=CC(C)(C)N3 [Example 121]
Query: Consider entries P and Q . Which has the numerically lower Ki? Indicate your choice by writing its label.
Response: P

1: COc1cccc2c1-c1ccc3c(c1[C@@H]([C@H]1C=C(CO)CCC1)O2)C(C)=CC(C)(C)N3 (relative stereo) [Example 149]
2: C=CCC1Oc2ccc(OC(=O)CCC(=O)N3CCCCC3)c(OC)c2-c2ccc3c(c21)C(C)=CC(C)(C)N3 (stereo not drawn) [Example 379]
3: CCC1([C@@H]2Oc3ccc(O)c(OC)c3-c3ccc4c(c32)C(C)=CC(C)(C)N4)CC=CCC1 (single isomer, unassigned; (-)) [Example 263]
4: CC1=C[C@@H]([C@@H]2Oc3ccc(O)c(Cl)c3-c3ccc4c(c32)C(C)=CC(C)(C)N4)CCC1 [Example 417]
Query: Number of compounds to sort: 4. Sort criterion: Ki, ascending. Provide your answer as the labels ordered per the instruction.
Response: 4, 3, 2, 1

Values compiled from patent US6506766B1.
